- Test system: VchCAST RNA-guided transposition machinery (E. coli BL21(DE3) host, lacZ target)
- Measurement description: relative integration efficiency (T-LR orientation) vs wild-type transposon end (log2 (normalized fold change)); transposon end mutated: left end; higher = more efficient transposition

Ordered residues | Comparison operator | relative integration efficiency (log2)
AATGTTGTTGATGCAACCATAAAGTGATATTTAATAACAACCATATATTGATATCTCACAAAACAACCATAAGTTGATATTTTTTATTTATAATCAGCAACTTAACCACAAAATGTGAATCGAGTATTTCAGCAAAACTACTGCAGTAAGAA | = | -1.89
TTTTGTGTTGAAACAACCATAAAGTGATAACAAATAATTATTTATAATCAGCAACTTAACCACAAAACAACCATATCTTGATATCGCATAAAACAACCATAAGTTGATATTTTGGTGAAAAGGATATTCCAACCTTCATAGTTTAGTAAGAA | = | -1.23
AATGTTGTTGATGCAACCATAAAGTGATATTTAATAACAACCATAAAGTGATATTTAACTTAACCACCAACCATATATTGATATCTCACAAAACAACCATAAGTTGATATTTTTGTGAATCGAGTATTTCAGCAAAACTACTGCAGTAAGAA | = | -3.39
AATGTTGTTGATGCAACCATAAAGTGATATTTAATAATTATTTATAATCAACCATATATTGATATCTCCAGCAACTTAACCACAAAAACAAAACAACCATAAGTTGATATTTTTGTGAATCGAGTATTTCAGCAAAACTACTGCAGTAAGAA | = | -2.65
AATGTTGTTGATGCAACCATAAAGTGATCGGGCATAATTATTTATAATCAGCAACTTAACCACAAAACAACCATATATTGATCGAGAACAAAACAACCATAAGTTGATCGGGGTGTGAATCGAGTATTTCAGCAAAACTACTGCAGTAAGAA | = | -3.33
AATGTTGTTGATGCAACCATAAAGTGATATGGCCGCCGGCGGGCGCCGACTACCAGGCCAACACCCCACCAACGCGCGGTCGCGAGACACCCCACCAACGCCTGGTCGCGGGGGTGTCCGATCTGATTTCAGCAAAACTACTGCAGTAAGAA | = | -6.67
AATGTTGTTGATGTGTTGATGCAACCATAAAGTGATATTTAATAATTATTTATAATCAGCAACTTAACCACAAAACAACCATATATTGATATCTCACAAAACAACCATAAGTTGATATTTTTGTGAATCGAGTATTTCAGCAAAACTACTGC | = | -0.829
AATGTTGTTGATGCAACCATATATTGATATCTCATAATTATTTATAATCAGCAACTTAACCACAAAACACCCATAAATTGATAATTAACAAAAGTTGGTATTCAACTATAAAATGTGAATCGAGTATTTCAGCAAAACTACTGCAGTAAGAA | = | -1.08
AATGTTGTTGAAACAACCATAAAGTGATAACAACGAATCAATTAAAATCATAGGCTTAATCGAAAAACAACCATATCTTGATATCGCATAAAACAACCATAAGTTGATATTTTGGTGAAAAGGATATTCCAACCTTCATAGTTTAGTAAGAA | = | 0.198
AATGTTGTTGATGCAACCATAAAGTGATATTTAATAATTATTTATAAGACTACCAGGCCAACACCCCACCAACGCGCGGTCGCGAGACACCCCACCAACGCCTGGTCGCGGGGGTGTCCGATCTGATTTCAGCAAAACTACTGCAGTAAGAA | = | -6.04
AATGTTGTTGATGCAACCATAAAGTGATATTTACCGACTGTCTGCCATCCGCCGCTGCACCGCAGCCCAACCATATATTGATATCTCACAAAACAACCATAAGTTGATATTTTTGTGAATCGAGTATTTCAGCAAAACTACTGCAGTAAGAA | = | -2.44
AATGTTGTTGATGCAACCATAAAGTGATATTTAATAATTATTTATAATCAGCAACTTAACCACAAAACAACCATATATTGATATCTCACAAAACAACCATAAGTTGATTGTGAATCGAGTATTTCAGCAAAACTACTGCAGTAAGAAAGTTA | = | -0.858
AATGTTGTTGATGCAACCATAAAGTGATATTTAATAATTATTTCGAACTAGTTAACTAGTACGCAAACAACCATATATTGATATCTCACAAAACAACCATAAGTTGATATTTTTGTGAATCGAGTATTTCAGCAAAACTACTGCAGTAAGAA | < | -10
